Reference source: ChEMBL document CHEMBL5356935

# assayNotes: Kinetic solubility of the compound at pH 7.4 at 200 uM incubated for 2 hrs under shaking condition by HPLC analysis
# Assay type: physicochemical
# conditionNotes: buffer, read-out: Kinetic_solubility
Recorded measurements of solubility kinetic at 2 h, 200 µM, one per entry
Give just the number in µM; leave the unit off.

These recorded examples may help you get a feel for the data.
CCc1nc(N)nc(N)c1OCCCOc1ccccc1CCC(=O)O ... 201
CCc1nc(N)nc(N)c1Cc1cccc(-c2ccc(C(=O)O)cc2)c1.Cl.Cl ... 30.8
CCc1nc(N)nc(N)c1Cc1ccc(-c2ccc(C(=O)O)cc2)cc1.Cl ... 11.7

Tell me its solubility kinetic at 2 h, 200 µM given `CCc1nc(N)nc(N)c1Cc1ccc(-c2cccc(C(=O)OC)c2)cc1.Cl` as the entry.
8.1

Give solubility kinetic at 2 h, 200 µM for `CCc1nc(N)nc(N)c1Cc1ccc(-c2cccc(C(=O)O)c2)cc1.Cl`
29.9
